experiment: in vitro; details: PAMPA
Papp at 16 h, 100 ug/ml overview
Respond with the bare value in ×10⁻⁶ cm/s.

Examples from the recorded data:
O=C1CCOc2cc(OCc3ccc(F)cc3)ccc21: 14.3
CC1(C)CC(=O)c2ccc(OCc3ccc(F)cc3)cc2O1: 9.71

State, in one line, measured Papp at 16 h, 100 ug/ml of `O=C1CCc2ccc(OCc3cccc(Br)c3)cc2N1`
8.89

State, in one line, measured Papp at 16 h, 100 ug/ml of `CC(=O)c1ccc(OCc2cccc(F)c2)cc1O`
15.9

State, in one line, measured Papp at 16 h, 100 ug/ml of `CC(=O)c1ccc(OCc2ccc(Cl)cc2)cc1O`
12.7

State, in one line, measured Papp at 16 h, 100 ug/ml of `CC(=O)c1ccc(OCc2ccc(F)cc2)cc1O`
13.5

----------
target: Amine oxidase [flavin-containing] A (Homo sapiens, UniProt P21397)
Sequence (P21397 whole entry): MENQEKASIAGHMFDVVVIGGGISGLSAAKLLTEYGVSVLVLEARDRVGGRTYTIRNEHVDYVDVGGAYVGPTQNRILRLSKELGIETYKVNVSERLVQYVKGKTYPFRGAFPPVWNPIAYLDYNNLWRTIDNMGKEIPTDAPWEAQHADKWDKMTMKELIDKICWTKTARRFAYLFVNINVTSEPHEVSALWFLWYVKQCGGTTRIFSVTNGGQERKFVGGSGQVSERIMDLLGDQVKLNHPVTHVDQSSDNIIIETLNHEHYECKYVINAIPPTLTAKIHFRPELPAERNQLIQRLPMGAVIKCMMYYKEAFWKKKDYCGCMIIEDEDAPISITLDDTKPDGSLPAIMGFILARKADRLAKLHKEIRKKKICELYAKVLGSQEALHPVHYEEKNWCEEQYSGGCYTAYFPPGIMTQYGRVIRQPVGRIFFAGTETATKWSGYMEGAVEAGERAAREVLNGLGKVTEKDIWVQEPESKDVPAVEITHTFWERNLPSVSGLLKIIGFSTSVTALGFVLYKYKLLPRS
pIC50 overview
# reply with the number alone; pIC50 is -log10 of concentration in mol/L

CC(=O)c1ccc(OCc2cccc(Cl)c2)cc1O: 4.32
O=C1OCc2cc(OCc3ccc(F)cc3)ccc21: 5.88
O=c1ccoc2cc(OCc3ccc(C(F)(F)F)cc3)ccc12: 4.72
O=C1OCc2cc(OCc3ccc(C(F)(F)F)cc3)ccc21: 5.03
CC(=O)c1ccc(OCc2ccc(F)cc2)cc1O: 4.36
O=C1CCCc2cc(OCc3ccc(Cl)cc3)ccc21: 6.47
CC(=O)c1ccc(OCc2cccc(Cl)c2)cc1: 4.05
CC(=O)c1cccc(OCc2ccc(Br)cc2)c1: 4.27

Next compound, pIC50 to be filled in.
Param request: pIC50 | system Amine oxidase [flavin-containing] A (Homo sapiens, UniProt P21397) | item `O=c1ccoc2cc(OCc3ccc(F)cc3)ccc12`
4.73

----------
viability at 72 h, 20 µM overview
experiment: Cytotoxicity against rat PC12 cells assessed as cell survival at 20 uM after 72 hrs by MTT assay relative to control; assay type: toxicity, PC-12; conditions: read-out: Survival

CC(=O)c1cccc(OCc2ccc(Cl)cc2)c1: 102%

Next compound, viability at 72 h, 20 µM to be filled in.
State, in one line, measured viability at 72 h, 20 µM of `Cc1c(C)c2ccc(OCc3ccc(F)c(F)c3)cc2oc1=O`
102%

----------
target: UniProt:P21397; experiment: Inhibition of recombinant human MAO-A using kynuramine as substrate assessed as decrease in 4-hydroxyquinoline production incubated for 20 mins by fluorescence spectrophotometry
QUANTITY_KIND: IC50 (µM)
Respond with the bare value in µM.

Examples from the recorded data:
CC(=O)c1ccc(OCc2ccc(F)cc2)cc1O: 3.7
CC(=O)c1ccc(OCc2cccc(F)c2)cc1O: 50.7

Next compound, IC50 to be filled in.
State, in one line, measured IC50 of `CC(=O)c1ccc(OCc2cccc(Cl)c2)cc1O`
17.7

----------
assay: Cytotoxicity against rat PC12 cells assessed as cell survival at 20 uM after 72 hrs by MTT assay relative to control; format: toxicity, PC-12; conditions: read-out: Survival
QUANTITY_KIND: viability at 72 h, 20 µM (%)
Respond with the bare value in %.

Examples from the recorded data:
CC(=O)c1ccc(OCc2ccc(F)cc2)cc1F: 123
CC(=O)c1ccc(OCc2ccc(F)cc2)cc1O: 109

State, in one line, measured viability at 72 h, 20 µM of `Cc1c(C)c2ccc(OCc3ccc(Cl)cc3)cc2oc1=O`
104

Data origin, for the record: ChEMBL document CHEMBL3862011
